assay_name: In vivo plasma/brain tissue distribution study in male SD rats
condition_details: male, SD, rat, 10 mg/kg, oral 10 mpk, plasma, read-out: T1/2, Plasma (converted)
measured_attribute: half-life (h)
Answers are plain numbers, in h.

The measured half-life associated with C[C@H](Nc1ccc2c(c1)OCCn1cc(N3C(=O)OC[C@H]3C(F)F)nc1-2)C(N)=O reads 1.32

---

System: MDR1
assay_name: MDCK-MDR1 permeability test
Format: in vitro ADME
condition_details: dog, pH 7.4, 2.5 hours
measured_attribute: Papp A→B at 2.5 h, 2 μM

The measured Papp A→B at 2.5 h, 2 μM associated with C[C@H](Nc1ccc2c(c1)OCCn1cc(N3C(=O)OC[C@H]3C(F)F)nc1-2)C(N)=O reads 1.99 ×10⁻⁶ cm/s

---

assay_name: Rat plasma-protein binding
Type: in vitro ADME
measured_attribute: fraction unbound

The measured fraction unbound associated with C[C@H](Nc1ccc2c(c1)OCCn1cc(N3C(=O)OC[C@H]3C(F)F)nc1-2)C(N)=O reads 0.515

---

tested_system: PI3K γ (Homo sapiens)
Sequence (P48736 whole entry): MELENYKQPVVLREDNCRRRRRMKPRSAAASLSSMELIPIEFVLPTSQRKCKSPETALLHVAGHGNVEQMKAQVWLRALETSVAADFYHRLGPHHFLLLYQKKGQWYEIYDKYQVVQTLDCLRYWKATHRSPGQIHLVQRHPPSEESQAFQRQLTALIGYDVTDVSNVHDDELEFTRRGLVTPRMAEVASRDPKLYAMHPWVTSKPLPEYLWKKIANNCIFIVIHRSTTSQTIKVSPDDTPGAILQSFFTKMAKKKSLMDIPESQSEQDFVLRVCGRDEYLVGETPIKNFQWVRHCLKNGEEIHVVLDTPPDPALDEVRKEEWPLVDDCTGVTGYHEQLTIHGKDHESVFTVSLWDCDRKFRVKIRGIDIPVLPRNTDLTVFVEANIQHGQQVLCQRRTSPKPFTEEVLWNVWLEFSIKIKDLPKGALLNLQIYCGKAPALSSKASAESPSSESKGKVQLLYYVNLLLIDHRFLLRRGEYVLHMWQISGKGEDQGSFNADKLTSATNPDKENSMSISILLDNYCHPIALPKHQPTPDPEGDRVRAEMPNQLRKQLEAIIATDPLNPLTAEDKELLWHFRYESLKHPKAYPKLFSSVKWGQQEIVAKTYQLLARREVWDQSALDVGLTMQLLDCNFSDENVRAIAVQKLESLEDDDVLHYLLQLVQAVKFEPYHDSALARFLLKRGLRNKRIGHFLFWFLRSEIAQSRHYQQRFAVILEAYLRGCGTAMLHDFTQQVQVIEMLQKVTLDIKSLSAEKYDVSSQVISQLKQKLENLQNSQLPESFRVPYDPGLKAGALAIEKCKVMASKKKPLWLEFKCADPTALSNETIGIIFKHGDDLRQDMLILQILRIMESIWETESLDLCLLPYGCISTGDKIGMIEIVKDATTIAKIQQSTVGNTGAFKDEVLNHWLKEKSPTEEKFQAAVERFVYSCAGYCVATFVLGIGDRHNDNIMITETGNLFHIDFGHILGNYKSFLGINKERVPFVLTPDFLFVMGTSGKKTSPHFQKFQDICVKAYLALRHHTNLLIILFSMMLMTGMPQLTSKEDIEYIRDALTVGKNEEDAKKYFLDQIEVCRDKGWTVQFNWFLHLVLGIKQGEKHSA
measured_attribute: IC50 (nM)
Give bare numbers, in nM.

The measured IC50 associated with C[C@H](Nc1ccc2c(c1)OCCn1cc(N3C(=O)OC[C@H]3C(F)F)nc1-2)C(N)=O [GDC-0077] reads 72

---

assay_name: In vivo DMPK study in male CD-1 mice
condition_details: male, CD-1, mouse, plasma, 1 mg/kg intravenous, read-out: Intravenous injection T1/2 (converted)
measured_attribute: half-life (h)
One number for each entry, in h.

The measured half-life associated with C[C@H](Nc1ccc2c(c1)OCCn1cc(N3C(=O)OC[C@H]3C(F)F)nc1-2)C(N)=O reads 1.2
